Experiment: Solubility in phosphate buffer pH=7.4
Format: physicochemical
Conditions: phosphate derivative / unphosphated counterpart, phosphate buffer pH=7.4
readout.kind: Solubility ratio

What value of measured Solubility ratio is listed for Cc1ccc(C(NC(=O)C2(c3ccc4[nH]cc(CCOP(=O)([O-])[O-])c4c3)CC2)c2ccc(C)o2)c(C)c1.[Na+].[Na+] (centres unmarked) ?
1 588

// lookup Solubility ratio for Cc1ccc(C(NC(=O)C2(c3ccc4[nH]cc(CCOP(=O)([O-])[O-])c4c3)CC2)c2ccccc2)c(N2CCOCC2)c1.[Na+].[Na+] (centres unmarked)
52 057

Need Solubility ratio, item COc1ccc(C(NC(=O)C2(c3ccc4[nH]cc(CCOP(=O)([O-])[O-])c4c3)CC2)c2ccccc2)c(C)c1.[Na+].[Na+] (centres unmarked)
≥13513

Would you kindly share the measured Solubility ratio for Cc1noc(C)c1C(NC(=O)C1(c2ccc3[nH]cc(CCOP(=O)([O-])[O-])c3c2)CC1)c1ccccc1.[Na+].[Na+] (centres unmarked) ?
≥911

Can you look up the measured Solubility ratio of Cc1ccc(C(NC(=O)C2(c3ccc4[nH]cc(CCOP(=O)(O)O)c4c3)CC2)c2cccc(C)n2)c(C)c1.[Na].[Na] (centres unmarked) for me?
≥12 000

Tell me the measured Solubility ratio of Cc1ccc(C(NC(=O)C2(c3ccc4[nH]cc(CCOP(=O)([O-])[O-])c4c3)CC2)C2CC2)c(C)c1.[Na+].[Na+] (centres unmarked) , please.
≥5 949

Which Solubility ratio is reported for this compound? Cc1ccc(C(NC(=O)C2(c3ccc4[nH]cc(CCOP(=O)([O-])[O-])c4c3)CC2)c2cccc(Cl)c2)c(C)c1.[Na+].[Na+] (centres unmarked)
≥100 000

What value of measured Solubility ratio is listed for COc1cc(C)ccc1C(NC(=O)C1(c2ccc3[nH]cc(CCOP(=O)([O-])[O-])c3c2)CC1)c1ccccc1.[Na+].[Na+] (centres unmarked) ?
7 000

====

Test: Solubility in phosphate buffer pH=7.4
Assay type: physicochemical
Details: aqueous buffer, thermodynamic from solid; phosphate buffer pH=7.4, stirring 24 hours at room temperature, LC-MS/MS
Response key: true means solubility at 24 h >= 90 µg/mL; false means solubility at 24 h < 90 µg/mL.

Record Cc1ccc(C(NC(=O)C2(c3ccc4[nH]cc(CCO)c4c3)CC2)c2cccc(Cl)c2)c(C)c1 (stereo not drawn) ; criterion: solubility at 24 h no lower than 90 µg/mL. Met?
false

***
Could you tell me if the measured solubility at 24 h of COc1cc(C)ccc1C(NC(=O)C1(c2ccc3[nH]cc(CCO)c3c2)CC1)c1ccccc1 (stereo not drawn) reaches 90 µg/mL or more?
false

# check: solubility at 24 h of Cc1ccc(C(NC(=O)C2(c3ccc4[nH]cc(CCOP(=O)(O)O)c4c3)CC2)c2cccc(C)n2)c(C)c1.[Na].[Na] (stereo not drawn) is greater than or equal to 90 µg/mL
true

Identify whether the reported solubility at 24 h of the following molecule is 90 µg/mL or greater: COc1ccc(C(NC(=O)C2(c3ccc4[nH]cc(CCOP(=O)([O-])[O-])c4c3)CC2)c2ccccc2)c(C)c1.[Na+].[Na+] (stereo not drawn)
true

Check this molecule for solubility at 24 h at or above 90 µg/mL: Cc1ccc(C(NC(=O)C2(c3ccc4[nH]cc(CCOP(=O)([O-])[O-])c4c3)CC2)C2CC2)c(C)c1.[Na+].[Na+] (stereo not drawn)
true
